Data origin, for the record: patent US10617679B2

Tested on: Wistar rats
measurement_notes: Evaluation of subacute toxicity (14 days, intragastric)
Format: in vivo
experimental_parameters: 40 mg/kg intragastric once a day for 14 days; rat
attribute_measured: AST (U/L)
Give your result in U/L as a bare value.

So what's the measured AST for this one? [2H]C([2H])([2H])Oc1cc2c(cc1OC([2H])([2H])[2H])[C@@H]1Cc3ccc(OC([2H])([2H])[2H])c(OC([2H])([2H])[2H])c3CN1CC2
143.8

So what's the measured AST for this one? [2H]C([2H])([2H])Oc1cc2c(cc1OC)CCN1Cc3c(ccc(OC([2H])([2H])[2H])c3OC)C[C@@H]21
251.8

So what's the measured AST for this one? COc1cc2c(cc1OC)[C@@H]1Cc3ccc(OC)c(OC)c3CN1CC2 [THP, L-tetrahydropalmatine, reference compound]
216.8

So what's the measured AST for this one? [2H]C([2H])([2H])Oc1ccc2c(c1OC)CN1CCc3cc(OC)c(OC)cc3[C@@H]1C2
195.0

====

Test system: blood pressure in rats
measurement_notes: Effects on blood pressure in rats
Assay type: in vivo, SD rats
experimental_parameters: 20 mg/kg intragastric; time point 60
Protocol: SD rats (male, weight 160-180 g) were fasted for 12 hours before administration but had free access to drinking water. The rats were randomly divided into groups. They were anesthetized with an intraperitoneal injection of 50-60 mg/kg dose of sodium pentobarbital. Each rat was fixed on the back on the surgical table. The skin was cut from the center of the neck, and an incision of about 2.5 cm was made. […] Heart rate and blood pressure were measured at different time points after administration.
attribute_measured: Blood pressure (mmHg)
Give your result in mmHg as a bare value.

So what's the measured Blood pressure for this one? [2H]C([2H])([2H])Oc1cc2c(cc1OC)CCN1Cc3c(ccc(OC([2H])([2H])[2H])c3OC)C[C@@H]21
102.0

So what's the measured Blood pressure for this one? [2H]C([2H])([2H])Oc1ccc2c(c1OC)CN1CCc3cc(OC)c(OC)cc3[C@@H]1C2
101.5

So what's the measured Blood pressure for this one? [2H]C([2H])([2H])Oc1cc2c(cc1OC([2H])([2H])[2H])[C@@H]1Cc3ccc(OC([2H])([2H])[2H])c(OC([2H])([2H])[2H])c3CN1CC2
104.2

So what's the measured Blood pressure for this one? COc1cc2c(cc1OC)[C@@H]1Cc3ccc(OC)c(OC)c3CN1CC2 [THP, L-tetrahydropalmatine, reference compound]
105.00

====

Test system: rat chronic sciatic nerve compression neuralgia model
measurement_notes: Analgesic effects of intragastric administration in a rat chronic sciatic nerve compression neuralgia model
Format: in vivo, SD rats
experimental_parameters: 40 mg/kg intragastric; pain threshold 1 hour after administration
attribute_measured: Analgesic percent

So what's the measured Analgesic percent for this one? [2H]C([2H])([2H])Oc1cc2c(cc1OC)CCN1Cc3c(ccc(OC)c3OC)C[C@@H]21 [Formula I3]
68.67%

So what's the measured Analgesic percent for this one? [2H]C([2H])([2H])Oc1cc2c(cc1OC)CCN1Cc3c(ccc(OC([2H])([2H])[2H])c3OC)C[C@@H]21 [Formula I6]
69.12%

So what's the measured Analgesic percent for this one? [2H]C([2H])([2H])Oc1cc2c(cc1OC)CCN1Cc3c(ccc(OC)c3OC([2H])([2H])[2H])C[C@@H]21 [Formula I5]
67.56%

So what's the measured Analgesic percent for this one? COc1cc2c(cc1OC)[C@@H]1Cc3ccc(OC)c(OC)c3CN1CC2 [THP, L-tetrahydropalmatine, reference compound]
68.36%

So what's the measured Analgesic percent for this one? [2H]C([2H])([2H])Oc1cc2c(cc1OC([2H])([2H])[2H])[C@@H]1Cc3ccc(OC([2H])([2H])[2H])c(OC([2H])([2H])[2H])c3CN1CC2 [Formula I7]
73.53%

So what's the measured Analgesic percent for this one? [2H]C([2H])([2H])Oc1ccc2c(c1OC)CN1CCc3cc(OC)c(OC)cc3[C@@H]1C2 [Formula I2]
68.86%

====

Test system: heart rate in rats
measurement_notes: Effects on heart rate in rats
Type: in vivo, SD rats
experimental_parameters: 20 mg/kg intragastric; time point 0
attribute_measured: Heart rate (BTM)
Give your result in BTM as a bare value.

So what's the measured Heart rate for this one? COc1cc2c(cc1OC)[C@@H]1Cc3ccc(OC)c(OC)c3CN1CC2 [THP, L-tetrahydropalmatine, reference compound]
399.3

So what's the measured Heart rate for this one? [2H]C([2H])([2H])Oc1cc2c(cc1OC([2H])([2H])[2H])[C@@H]1Cc3ccc(OC([2H])([2H])[2H])c(OC([2H])([2H])[2H])c3CN1CC2
401.5

So what's the measured Heart rate for this one? [2H]C([2H])([2H])Oc1ccc2c(c1OC)CN1CCc3cc(OC)c(OC)cc3[C@@H]1C2
400.8

So what's the measured Heart rate for this one? [2H]C([2H])([2H])Oc1cc2c(cc1OC)CCN1Cc3c(ccc(OC([2H])([2H])[2H])c3OC)C[C@@H]21
407.1

====

Kindly state Heart rate for each of the entries shown.
System: heart rate in rats
measurement_notes: Effects on heart rate in rats
Assay type: in vivo, SD rats
experimental_parameters: 20 mg/kg intragastric; time point 180
Give your result in BTM as a bare value.

So what's the measured Heart rate for this one? [2H]C([2H])([2H])Oc1ccc2c(c1OC)CN1CCc3cc(OC)c(OC)cc3[C@@H]1C2
407.0

So what's the measured Heart rate for this one? COc1cc2c(cc1OC)[C@@H]1Cc3ccc(OC)c(OC)c3CN1CC2 [THP, L-tetrahydropalmatine, reference compound]
429.8

So what's the measured Heart rate for this one? [2H]C([2H])([2H])Oc1cc2c(cc1OC)CCN1Cc3c(ccc(OC([2H])([2H])[2H])c3OC)C[C@@H]21
402.5

So what's the measured Heart rate for this one? [2H]C([2H])([2H])Oc1cc2c(cc1OC([2H])([2H])[2H])[C@@H]1Cc3ccc(OC([2H])([2H])[2H])c(OC([2H])([2H])[2H])c3CN1CC2
398.5

====

Kindly state Blood pressure for each of the entries shown.
System: blood pressure in rats
measurement_notes: Effects on blood pressure in rats
Type: in vivo, SD rats
experimental_parameters: 20 mg/kg intragastric; time point 90
Give your result in mmHg as a bare value.

So what's the measured Blood pressure for this one? [2H]C([2H])([2H])Oc1ccc2c(c1OC)CN1CCc3cc(OC)c(OC)cc3[C@@H]1C2 [Formula I2]
102.25

So what's the measured Blood pressure for this one? [2H]C([2H])([2H])Oc1cc2c(cc1OC([2H])([2H])[2H])[C@@H]1Cc3ccc(OC([2H])([2H])[2H])c(OC([2H])([2H])[2H])c3CN1CC2 [Formula I7]
102.6

So what's the measured Blood pressure for this one? COc1cc2c(cc1OC)[C@@H]1Cc3ccc(OC)c(OC)c3CN1CC2 [THP, L-tetrahydropalmatine, reference compound]
105.1

So what's the measured Blood pressure for this one? [2H]C([2H])([2H])Oc1cc2c(cc1OC)CCN1Cc3c(ccc(OC([2H])([2H])[2H])c3OC)C[C@@H]21 [Formula I6]
104.7

====

Test system: Wistar rats
measurement_notes: Evaluation of subacute toxicity (14 days, intragastric)
Assay type: in vivo
experimental_parameters: 40 mg/kg intragastric once a day for 14 days; result in words
attribute_measured: plasma ALT and AST versus control group

[2H]C([2H])([2H])Oc1ccc2c(c1OC)CN1CCc3cc(OC)c(OC)cc3[C@@H]1C2    significant increase
[2H]C([2H])([2H])Oc1cc2c(cc1OC)CCN1Cc3c(ccc(OC([2H])([2H])[2H])c3OC)C[C@@H]21    significant increase
COc1cc2c(cc1OC)[C@@H]1Cc3ccc(OC)c(OC)c3CN1CC2 [THP, L-tetrahydropalmatine, reference compound]    significant increase

====

Test system: blood pressure in rats
measurement_notes: Effects on blood pressure in rats
Format: in vivo, SD rats
experimental_parameters: 20 mg/kg intragastric; time point 0
Kindly state Blood pressure for each of the entries shown.
Give your result in mmHg as a bare value.

So what's the measured Blood pressure for this one? [2H]C([2H])([2H])Oc1cc2c(cc1OC([2H])([2H])[2H])[C@@H]1Cc3ccc(OC([2H])([2H])[2H])c(OC([2H])([2H])[2H])c3CN1CC2
112.6

So what's the measured Blood pressure for this one? COc1cc2c(cc1OC)[C@@H]1Cc3ccc(OC)c(OC)c3CN1CC2 [THP, L-tetrahydropalmatine, reference compound]
111.5

So what's the measured Blood pressure for this one? [2H]C([2H])([2H])Oc1ccc2c(c1OC)CN1CCc3cc(OC)c(OC)cc3[C@@H]1C2
113.1

So what's the measured Blood pressure for this one? [2H]C([2H])([2H])Oc1cc2c(cc1OC)CCN1Cc3c(ccc(OC([2H])([2H])[2H])c3OC)C[C@@H]21
115.6
